- experimental.context: 293.15 K; 101.33 kPa; Liquid; Concentric cylinders viscometry
Each item that follows carries a reported viscosity.
quantity.name: viscosity (mPa·s)

INSERT INTO measurements (given_smiles, measured_value) VALUES
  ('CCCC[N+]1(C)CCCC1.O=S(=O)([N-]S(=O)(=O)C(F)(F)F)C(F)(F)F', 101.71),
  ('CCCC[n+]1cccc(C)c1.O=S(=O)([N-]S(=O)(=O)C(F)(F)F)C(F)(F)F', 84.2),
  ('CCCC[N+]1(C)CCCCC1.O=S(=O)([N-]S(=O)(=O)C(F)(F)F)C(F)(F)F', 261.28),
  ('Cc1ccc[n+](CC(C)C)c1.O=S(=O)([N-]S(=O)(=O)C(F)(F)F)C(F)(F)F', 135.42),
  ('CC(C)Cn1cc[n+](C)c1.O=S(=O)([N-]S(=O)(=O)C(F)(F)F)C(F)(F)F', 107.35),
  ('CC(C)C[N+]1(C)CCCC1.O=S(=O)([N-]S(=O)(=O)C(F)(F)F)C(F)(F)F', 83.61);

---

- assay: refractive index (Na D-line) (dimensionless)
- experimental.context: 298.15 K; 101.33 kPa; Liquid; Standard Abbe refractometry
± gives the expanded uncertainty stated by the source.
quantity.name: refractive index

INSERT INTO assay_data (given_smiles, quantity_name, measured_value) VALUES
  ('CCCC[n+]1cccc(C)c1.O=S(=O)([N-]S(=O)(=O)C(F)(F)F)C(F)(F)F', 'refractive index', '1.4458 ± 0.00037'),
  ('Cc1ccc[n+](CC(C)C)c1.O=S(=O)([N-]S(=O)(=O)C(F)(F)F)C(F)(F)F', 'refractive index', '1.44585 ± 0.00051'),
  ('CCCC[N+]1(C)CCCC1.O=S(=O)([N-]S(=O)(=O)C(F)(F)F)C(F)(F)F', 'refractive index', '1.42319 ± 0.00037');

---

- experimental.context: 343.15 K; 101.33 kPa; Liquid; Vibrating tube method
quantity.name: mass density (kg/m3)

INSERT INTO results (given_smiles, unit, measured_value) VALUES
  ('Cc1ccc[n+](CC(C)C)c1.O=S(=O)([N-]S(=O)(=O)C(F)(F)F)C(F)(F)F', 'kg/m3', 1371.6),
  ('CC(C)C[N+]1(C)CCCC1.O=S(=O)([N-]S(=O)(=O)C(F)(F)F)C(F)(F)F', 'kg/m3', 1360.9),
  ('CCCC[n+]1cccc(C)c1.O=S(=O)([N-]S(=O)(=O)C(F)(F)F)C(F)(F)F', 'kg/m3', 1373.1),
  ('CC(C)C[N+]1(C)CCCCC1.O=S(=O)([N-]S(=O)(=O)C(F)(F)F)C(F)(F)F', 'kg/m3', 1359.1),
  ('CCCC[N+]1(C)CCCC1.O=S(=O)([N-]S(=O)(=O)C(F)(F)F)C(F)(F)F', 'kg/m3', 1362.1),
  ('CCCC[N+]1(C)CCCCC1.O=S(=O)([N-]S(=O)(=O)C(F)(F)F)C(F)(F)F', 'kg/m3', 1344.1),
  ('CC(C)Cn1cc[n+](C)c1.O=S(=O)([N-]S(=O)(=O)C(F)(F)F)C(F)(F)F', 'kg/m3', 1394.9);
